Listed here are binders together with their documented EC50 (M), CRE-luciferase reporter in CHO-CRE-LGR7 cells.
Biological target: T1, human LGR7/RXFP1 receptor (human, UniProt Q9HBX9 1-757)
T1 sequence (looked up): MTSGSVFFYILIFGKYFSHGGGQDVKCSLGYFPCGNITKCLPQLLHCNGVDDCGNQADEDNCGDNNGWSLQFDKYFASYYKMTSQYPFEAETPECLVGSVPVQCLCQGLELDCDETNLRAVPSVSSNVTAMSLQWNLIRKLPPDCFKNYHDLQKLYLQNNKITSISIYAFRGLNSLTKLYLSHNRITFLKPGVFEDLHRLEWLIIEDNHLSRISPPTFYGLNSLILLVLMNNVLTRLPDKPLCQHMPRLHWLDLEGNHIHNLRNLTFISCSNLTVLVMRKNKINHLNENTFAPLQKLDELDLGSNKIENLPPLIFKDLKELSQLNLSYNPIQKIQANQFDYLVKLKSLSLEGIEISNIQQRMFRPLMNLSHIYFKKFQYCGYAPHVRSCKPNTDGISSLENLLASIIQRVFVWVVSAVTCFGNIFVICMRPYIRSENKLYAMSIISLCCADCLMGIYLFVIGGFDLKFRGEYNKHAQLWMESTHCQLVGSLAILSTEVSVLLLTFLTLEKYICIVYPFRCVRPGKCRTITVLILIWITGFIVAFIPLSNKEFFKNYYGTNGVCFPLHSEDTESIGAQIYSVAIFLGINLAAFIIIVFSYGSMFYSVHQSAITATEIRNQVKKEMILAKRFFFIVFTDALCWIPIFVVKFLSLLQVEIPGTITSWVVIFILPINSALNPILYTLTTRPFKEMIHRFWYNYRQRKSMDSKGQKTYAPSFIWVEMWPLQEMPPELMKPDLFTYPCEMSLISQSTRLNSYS
Assay: cell-based or functional assay
Ends that are not written are not given here.
Report as a plain number; the unit M is understood.

Please review the following examples before continuing.
scR4 (ligand) EQKLISEEDLQLYSALANKCCHVGCTKRSLARFCGGGSGGGSGSWMEEVIKLCGRELVRAQIAICGMSTWSYPYDVPDYAHHHHHH; 3.4e-11
scR15 (ligand) EQKLISEEDLDVLAGLSSSCCKWGCSKSEISSLCGGGSGGGSGRAAPYGVRLCGREFIRAVIFTCGGSRW; 6.2e-10
scR12 (ligand) QLYSALANKCCHVGCTKRSLARFCGGGSGKGGSGSWMEEVIKLCGRELVRAQIAICGMSTWS; 3.6e-08

// field: EC50 (M), CRE-luciferase reporter in CHO-CRE-LGR7 cells; key: scR14 (ligand, ends and bridges not checked; cysteine pairing not given here) DVLAGLSSSCCKWGCSKSEISSLCGGGSGGGSGRAAPYGVRLCGREFIRAVIFTCGGSRW ; value = 5.9e-10

// field: EC50 (M), CRE-luciferase reporter in CHO-CRE-LGR7 cells; key: scR8 (ligand) EQKLISEEDLQLYSALANKCCHVGCTKRSLARFCGGGSGGGSGGGSSWMEEVIKLCGRELVRAQIAICGMSTWS ; value = 2.4e-08

// field: EC50 (M), CRE-luciferase reporter in CHO-CRE-LGR7 cells; key: scR9 (ligand) EQKLISEEDLQLYSALANKCCHVGCTKRSLARFCGGGSGGGSGGGSGSWMEEVIKLCGRELVRAQIAICGMSTWS ; value = 1.1e-07

Hey, just so you know, these numbers are from patent US20140187491A1.
